# study_target: Neu5Ac(a2-6)Gal(b1-4)GlcNAc(b1-2)[Neu5Ac(a2-6)Gal(b1-4)GlcNAc(b1-6)]Man(a1-6)[Neu5Ac(a2-6)Gal(b1-4)GlcNAc(b1-2)Man(a1-3)][GlcNAc(b1-4)]Man(b1-4)GlcNAc(b1-4)GlcNAc
# protocol: glycan array binding signal (z-score within array); higher = stronger binding
# assay_setup: glycan notation: IUPAC condensed, linker removed
About 410 targets per protein were measured; listed, in parts, are those with the strongest signals and a random draw of the rest.
Reported glycan array binding signal (z-score) by item:
API note: the answer field is a bare number with no unit suffix.

These recorded examples may help you get a feel for the data.
binder: Gal 7 (Homo sapiens) (protein) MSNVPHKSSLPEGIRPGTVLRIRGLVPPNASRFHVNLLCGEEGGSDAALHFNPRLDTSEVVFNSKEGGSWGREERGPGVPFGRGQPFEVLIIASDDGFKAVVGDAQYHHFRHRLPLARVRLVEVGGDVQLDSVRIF
quantitative_readout: -0.274
--
binder: rCnSL-A (Clitocybe nebularis) (protein) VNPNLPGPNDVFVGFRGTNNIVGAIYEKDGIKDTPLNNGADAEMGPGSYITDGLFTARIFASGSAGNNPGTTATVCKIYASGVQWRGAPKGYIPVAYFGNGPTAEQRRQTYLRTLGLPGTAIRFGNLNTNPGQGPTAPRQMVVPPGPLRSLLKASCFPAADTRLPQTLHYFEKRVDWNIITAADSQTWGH
quantitative_readout: -0.269
--
binder: pilr alpha (protein) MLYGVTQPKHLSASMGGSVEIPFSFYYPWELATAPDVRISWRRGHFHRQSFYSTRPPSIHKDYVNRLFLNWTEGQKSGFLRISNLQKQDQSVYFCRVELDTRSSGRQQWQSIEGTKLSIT
quantitative_readout: 0.09
--
binder: CM2 (Cordyceps militaris) (protein) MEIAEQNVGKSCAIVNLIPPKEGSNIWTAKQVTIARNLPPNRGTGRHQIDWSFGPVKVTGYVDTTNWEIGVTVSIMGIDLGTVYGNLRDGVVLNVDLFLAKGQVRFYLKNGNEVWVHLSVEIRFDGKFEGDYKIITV
quantitative_readout: -0.924

query: // returns reported glycan array binding signal (z-score) for input Arath Fbox LD (Arabidopsis thaliana) (protein) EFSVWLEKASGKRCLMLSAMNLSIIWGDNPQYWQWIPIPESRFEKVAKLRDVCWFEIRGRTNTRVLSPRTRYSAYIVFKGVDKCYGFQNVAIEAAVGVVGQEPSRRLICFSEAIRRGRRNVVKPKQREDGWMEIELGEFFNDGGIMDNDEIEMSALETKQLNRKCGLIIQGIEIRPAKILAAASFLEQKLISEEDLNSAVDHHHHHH
result: 0.015
